B1: TPR t1 (parent)
chain: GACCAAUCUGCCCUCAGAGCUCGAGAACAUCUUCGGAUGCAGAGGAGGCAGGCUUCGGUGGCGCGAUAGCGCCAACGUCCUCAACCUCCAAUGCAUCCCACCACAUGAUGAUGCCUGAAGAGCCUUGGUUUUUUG

Variants of: B1
Assay Overview: polymerase ribozyme fitness, log enrichment relative to wild type (log ratio); higher = more active; in vitro selection for triplet polymerase activity
Readout Type: polymerase ribozyme fitness (log ratio)

| Variant Label | Experimental Value |
| --- | --- |
| A29G C73U C114A | -1.97 |
| C56A G69C C79U G113U G117A | -5.4 |
| G44A C49U U106C | -2.86 |
| C8A G42U U96A A100U | -2.37 |
| U9G G45A C49U C72U G93A | -1.56 |
| C101A C102A | -5 |
| A46G C56A A100C | -1.41 |
| G63U C70A G127C | -0.596 |
| G61A U78G C85U A90C | -2.22 |
| C76U C82A C88U | -1.25 |
| G48A C85G U106C | -1.25 |
| G117A U133A | -1.2 |
| C49G C72G G120C | -0.782 |
| C70U C76U U106C U133G | -1.64 |
| U38G U78G | -0.583 |
| C8U G113C | -1.19 |
| A37C C62G G120U U125G U130C | -3.18 |
| A5G A29C | -1.82 |
| C62G G93C G120A U125G U131G | -3.65 |
| U9C G63A | 0.19 |
| G45U C56U U81G C101G C114A | -5.46 |
| C56A C80A U116G | -4.93 |
